Molecular target: Cad1 (UniProt P24813)
Sequence: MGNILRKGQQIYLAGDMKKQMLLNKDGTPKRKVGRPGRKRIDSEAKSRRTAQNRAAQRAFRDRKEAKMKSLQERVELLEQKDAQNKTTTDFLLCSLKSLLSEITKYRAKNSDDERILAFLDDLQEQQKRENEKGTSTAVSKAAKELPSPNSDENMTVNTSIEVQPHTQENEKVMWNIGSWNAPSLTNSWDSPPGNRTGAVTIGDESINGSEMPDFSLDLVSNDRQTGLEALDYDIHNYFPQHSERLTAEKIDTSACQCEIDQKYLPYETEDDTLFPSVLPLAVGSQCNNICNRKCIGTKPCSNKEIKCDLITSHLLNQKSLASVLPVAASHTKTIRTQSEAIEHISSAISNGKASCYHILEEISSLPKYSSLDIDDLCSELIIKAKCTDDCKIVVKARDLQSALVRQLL
Test: PBM E-score (8-mer binding enrichment) (E-score (-0.5 to 0.5)); higher = stronger / more preferred TF binding
Conditions: protein concentration: 100 nM; construct: GST-full length
Whole data set: some 33,000 sequences, median “E-score (-0.5 to 0.5)” near -0.0014, cut for the highest 2% near 0.25. The sample as a whole holds a higher share of the highest values than the screen did.
valueKind: PBM E-score
Please give the numeric answer without any surrounding text.

Worked cases, PBM E-score given:
• ATATCGCA = -0.0511
• TAAGCTGA = 0.208
• AATATTAT = 0.194
• CATATTAA = 0.272
• GATGCAGA = 0.146
• CTCGCGAA = 0.0936
• AGAGCGAG = -0.0569
• CGAGCGAG = 0.258

Exam item: Query PBM E-score for "CATATTTA"
Marked response: 0.232

Exam item: Could you please provide reported PBM E-score for "CGATCGCA" ? Thanks!
Marked response: 0.169

Exam item: State, in one line, measured PBM E-score of "CTCGCGAG"
Marked response: 0.279

Exam item: Name the recorded PBM E-score of the sequence listed here: "ATCGCGAT"
Marked response: 0.237

Exam item: Give reported PBM E-score value for "CACGCGAG"
Marked response: 0.239

Exam item: Give reported PBM E-score value for "CAAGCTTA"
Marked response: 0.159

Exam item: Give the value of PBM E-score reported for the following: "CCCAGCGG"
Marked response: -0.264

Exam item: Answer with the recorded PBM E-score of "GCGCAGTA" only.
Marked response: 0.149

Exam item: Provide one value: measured PBM E-score of "ATCGCGAG"
Marked response: 0.264

Exam item: Look up and state reported PBM E-score for "CATATTAG"
Marked response: 0.179

Exam item: Given "ATCTTACC" , respond with its PBM E-score.
Marked response: 0.0255

Exam item: Answer with reported PBM E-score of "ATATCGCG"
Marked response: 0.267

Exam item: Supply PBM E-score value. Item: "GGGTGGCA"
Marked response: -0.124

Exam item: Consider the sequence "CGTAACAC" and give its recorded PBM E-score.
Marked response: 0.124

* * *

Molecular target: Cad1 (UniProt P24813)
Sequence: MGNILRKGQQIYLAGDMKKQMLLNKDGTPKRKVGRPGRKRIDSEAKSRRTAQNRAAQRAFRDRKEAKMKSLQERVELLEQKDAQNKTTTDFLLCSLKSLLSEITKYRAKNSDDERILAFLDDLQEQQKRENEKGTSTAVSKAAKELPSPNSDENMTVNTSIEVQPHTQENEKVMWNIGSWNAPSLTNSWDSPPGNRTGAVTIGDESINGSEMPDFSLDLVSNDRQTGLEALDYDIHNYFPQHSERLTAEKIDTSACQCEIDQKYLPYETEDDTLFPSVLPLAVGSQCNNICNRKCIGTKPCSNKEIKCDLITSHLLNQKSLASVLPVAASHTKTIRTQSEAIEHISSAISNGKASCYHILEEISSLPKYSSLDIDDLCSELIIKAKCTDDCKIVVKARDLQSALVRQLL
Assay: PBM E-score (8-mer binding enrichment) (E-score (-0.5 to 0.5)); higher = stronger / more preferred TF binding
Conditions: protein concentration: 100 nM; construct: GST-full length
In all, about 33,000 sequences were measured (“E-score (-0.5 to 0.5)”: median about -0.0014, highest 2% from about 0.25 on). This excerpt belongs to a sample that is enriched for the highest values.
# PBM E-score >= 0.09 gives Condition met, anything below gives Condition not met

Solved entries (count: 5):
* AACGCCAT | Condition not met
* CGCAACGA | Condition not met
* AGCTCGCG | Condition met
* CGTCCGTA | Condition not met
* GAGTATCA | Condition not met

Exam item: hey, is PBM E-score for this one >= 0.09? "ATAGATTG"
Marked response: Condition not met

Exam item: Dear colleague, could you confirm whether "AATTTTAC" has PBM E-score at or above 0.09?
Marked response: Condition met

Exam item: Decide: is the reported value of PBM E-score for "ACAGTCCC" equal to or greater than 0.09?
Marked response: Condition not met

Exam item: # bool: PBM E-score of "AGCTCGCC" >= 0.09
Marked response: Condition not met

Exam item: Reported PBM E-score reaches at least 0.09 for "AGTTGAGA" ?
Marked response: Condition not met
